Recorded Relative IC50 (fold of chimeric PTA-2358), one value per entry.
Target Or System: antigen on NCI-H187 classic small cell lung carcinoma cells (ATCC Number: CRL-5804) recognised by PTA-2358
Assay Method Text: competition flow cytometry on NCI-H187 cells against mouse PTA-2358; CHO-K1-derived
Reply: number alone, nothing else.

Binder: PTA-2358 VH1/VK2 IgG1 antibody (antibody, V domains shown) VH: EVQLVQSGAELKKPGASVKLSCTASGFNIKDYYMHWVKQAPGQGLEWIGWIDPGNGDTECAPKFQGRATLTADTSINTAYLELSRLRSDDTAVYYCNAPYYSGSSHFDYWGQGTTVTVSS VL: DIVLTQSPDSLAVSLGERATINCRASKSVSASGYSFLHWYQQKPGQPPKLLIYLASNLESGVPDRFSGSGSGTDFTLTISSLQAEDVATYYCQHSRELRTFGQGTKLEIK
Experimental Result: 2.38
//
Binder: PTA-2358 VH1/VK1 IgG1 antibody (antibody, V domains shown) VH: EVQLVQSGAELKKPGASVKLSCTASGFNIKDYYMHWVKQAPGQGLEWIGWIDPGNGDTECAPKFQGRATLTADTSINTAYLELSRLRSDDTAVYYCNAPYYSGSSHFDYWGQGTTVTVSS VL: DIVLTQSPDSLAVSLGERATINCRASKSVSASGYSFLHWYQQKPGQPPKLLIYLASNLESGVPDRFSGSGSGTDFTLTISSLQEEDVATYYCQHSRELRTFGQGTKLEIK
Experimental Result: 1.09

// next entry
Give the measured Relative IC50 (fold of chimeric PTA-2358) of PTA-2358 VH2/VK2 IgG1 antibody (antibody, V domains shown) VH: EVQLVQSGAEVKKPGASVKLSCTASGFNIKDYYMHWVKQAPGQGLEWIGWIDPGNGDTECAPKFQGRATLTADTSINTAYLELSRLRSDDTAVYYCNAPYYSGSSHFDYWGQGTTVTVSS VL: DIVLTQSPDSLAVSLGERATINCRASKSVSASGYSFLHWYQQKPGQPPKLLIYLASNLESGVPDRFSGSGSGTDFTLTISSLQAEDVATYYCQHSRELRTFGQGTKLEIK .
1.29
